- Test system: HLA-DR2 restricted MBP 84-102-specific T cell transfectant 8073
- Protocol Text: Inhibition of proliferation of MBP 84-102-specific T cell transfectant 8073 (L466 APC, CTLL readout)
- Format: cell-based, human
- Test Context: MBP 85-99 12.5 μM, FIGS. 2B, 3B, 5B, 6B, 8
No end group written: not given here.
Readout Name: Inhibition of proliferation of T cell transfectant 8073 (in words)

EAKKYEAYKAAAAAA [#102] : most inhibitory
EAAKYEAYKAAAAAA [#100] : most inhibitory
EAAAYKAYKAAAAAA [#99] : most inhibitory
EKAKYEAYKAAAAAA [#101] : most inhibitory
AAEAYKAYKAAAAAA [#94] : most inhibitory
EAEAYKAYKAAAAAA [#96] : most inhibitory
ENPVVHYFKNIVTPR [#107, reference compound] : most inhibitory
AKKEYAEYKAAAAAA [#103] : most inhibitory

---

A collection of sequences and their measured IC50
- Assayed System: HLA-DR2 molecules (Homo sapiens, UniProt P01903+P01911)
- Construct: Soluble HLA-DR2 molecules were expressed in Drosophila S2 cells and purified as described; made in house; host or cells: Drosophila S2 cells
- Protocol Text: Competitive binding assay: inhibition of biotinylated Cop 1 binding to HLA-DR2 molecules
- Test Context: biotinylated Cop 1 1.5 μM, recombinant HLA-DR2, one out of two independent experiments; read-out: IC50 (μM) vs. biotinylated: Cop 1
No end group written: not given here.
Readout Name: IC50

EKAKYEAYKAAAAAA [#101] : < 1 µM
EAEKYAAYAAAAAAA [#71] : > 1000 µM
ENPVVHYFKNIVTPR [#107, reference compound] : 40 µM
AAEKYEAYAAAAAAA [#69] : > 1000 µM
AAAEYAAYKAAAAAA [#76] : > 1000 µM
EAKEYAAYAAAAAAA [#74] : > 1000 µM
EKEAYAAYAAAAAAA [#73] : > 1000 µM
EAAEYAAYKAAAAAA [#89] : > 1000 µM
AKEAAAAYAAAAAAA [#45] : > 150 µM
AAKEYAAYKAAAAAA [#84] : > 1000 µM
AAAEYKAYAAAAAAA [#70] : > 1000 µM
AEAKYAAYAAAAAAA [#60] : > 1000 µM
AKAEYAAYAAAAAAA [#59] : > 1000 µM
AEAKYAAYKAAAAAA [#79] : > 1000 µM
AEKKYAAYAAAAAAA [#54] : > 1000 µM
EAAAYKAYKAAAAAA [#99] : > 150 µM
AKAEAAAYAAAAAAA [#48] : > 1000 µM
EAKAYAAYAAAAAAA [#75] : > 1000 µM
AKEEYAAYKAAAAAA [#82] : > 1000 µM
EAKAYEYAKAAAAAA [#113] : < 1 µM
AAEEYKAYAAAAAAA [#61] : > 1000 µM
AKEAYAAYAAAAAAA [#57] : > 1000 µM
AKEKYAAYAAAAAAA [#63] : > 1000 µM
AKKEYAEYKAAAAAA [#103] : < 1 µM
AEKAYAAYAAAAAAA [#52] : > 150 µM
EAAKYAAYKAAAAAA [#85] : > 1000 µM
EKAAYAAYKAAAAAA [#87] : > 1000 µM
AKAAYEAYAAAAAAA [#64] : > 1000 µM
AAEKYAEYKAAAAAA [#104] : 20 µM
AAKAYEAYKAAAAAA [#93] : > 150 µM
AKEAYAAYKAAAAAA [#78] : > 1000 µM
EAKAYEAYKAAAAAA [#95] : > 1000 µM
EKAEYAAYAAAAAAA [#72] : > 1000 µM
